Reference for the values: ChEMBL document CHEMBL1152215

Target protein (sequence): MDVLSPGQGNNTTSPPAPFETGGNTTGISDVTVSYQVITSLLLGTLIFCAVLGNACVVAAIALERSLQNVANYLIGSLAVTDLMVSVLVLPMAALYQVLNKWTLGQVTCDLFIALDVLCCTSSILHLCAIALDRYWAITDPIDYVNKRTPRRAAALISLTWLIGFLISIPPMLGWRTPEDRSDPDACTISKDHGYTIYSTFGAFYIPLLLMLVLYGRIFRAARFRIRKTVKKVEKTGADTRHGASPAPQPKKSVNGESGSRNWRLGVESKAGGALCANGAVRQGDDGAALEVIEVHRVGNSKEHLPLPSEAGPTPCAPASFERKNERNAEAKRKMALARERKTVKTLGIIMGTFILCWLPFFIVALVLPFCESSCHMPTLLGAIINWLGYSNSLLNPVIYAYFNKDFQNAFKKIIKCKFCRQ
pKi: −log10 of the molar value.
Readout Label: pKi

The following compounds have reported results that may help.
Compound	pKi
Cc1ccc2c(N3CCN(CCc4cc(F)c5c(c4)NC(=O)CO5)CC3)cccc2n1	8.90
Cc1ccc2c(N3C[C@H]4C[C@@H]3CN4CCc3ccc4c(c3)NC(=O)CO4)cccc2n1	6.90

a = Cc1ccc2c(N3CCN(CCc4ccc5c(c4)NC(=O)CO5)[C@@H](C)C3)cccc2n1
b = O=C1COc2ccc(CCN3CCN(c4cccc5nc(-c6ccccc6)ccc45)CC3)cc2N1
c = Cc1ccc2c(N3CCN(CCc4cc5c(cc4F)OCC(=O)N5)CC3)cccc2n1
Ask | Ascending by pKi, please: list the compounds accordingly. A complete answer lists every label in the requested sequence.
Reply | a, b, c

a = Cc1ccc2c(N3CCN(CCc4ccc5c(c4)NC(=O)CO5)CC3)ccc(Cl)c2n1
b = Cc1ccc2c(N3CCN(CCc4ccc5c(c4)NC(=O)CO5)CC3C)cccc2n1 (stereo not given)
Ask | // compare measured pKi, left a , right b , return larger Returns: label corresponding to the selected item.
Reply | b

I = Cc1ccc2c(N3CCN(CCc4ccc5c(c4)NC(=O)CO5)CC3)cc(F)cc2n1
II = Cc1cc(N2CCN(CCc3ccc4c(c3)NC(=O)CO4)CC2)c2ccc(C)nc2c1
Ask | // which entry reports the smaller pKi, I or II ? Returns: label corresponding to the selected item.
Reply | I

---

Assay: Ratio of drug level in brain to blood in rat
Format: ADME, organism-based
Details: brain / whole blood
Readout Label: Kp
// return just the number, without any unit appended

Ask | Could you please provide reported Kp for Cc1ncc2c(N3CCN(CCc4ccc5c(c4)NC(=O)CO5)CC3)cccc2n1 ? Thanks!
Reply | 0.3

---

Biological target: 5-hydroxytryptamine receptor 1A (Homo sapiens) (UniProt P08908)
Assay: Intrinsic activity at human 5HT1A receptor expressed in CHO cells by [S35]GTPgammaS binding assay relative to serotonin
Format: functional, cell-based
Readout Label: Intrinsic activity

The following compounds have reported results that may help.
Cc1ccc2c(N3CCN(CCc4cc(F)c5c(c4)NC(=O)CO5)CC3)cccc2n1 0
Cc1ccc2c(N3CCN(CCc4ccc5c(c4)NC(=O)CO5)CC3)cccc2n1 0.2
Cc1cc(N2CCN(CCc3ccc4c(c3)NC(=O)CO4)CC2)c2ccc(C)nc2c1 1.2
O=C1COc2ccc(CCN3CCN(c4cccc5cccnc45)CC3)cc2N1 0.8
O=C1COc2ccc(CCN3CCN(c4cccc5nc(-c6ccccc6)ccc45)CC3)cc2N1 0.4

a = O=C1COc2ccc(CCN3CCN(c4nccc5ccccc45)CC3)cc2N1
b = Cc1ccc2c(N3CCN(CCc4ccc5c(c4)NC(=O)CO5)[C@@H](C)C3)cccc2n1
c = Cc1ccc2c(N3CCN(CCc4ccc5c(c4F)NC(=O)CO5)CC3)cccc2n1
Ask | Ascending by Intrinsic activity, please: list the compounds accordingly. A complete answer lists every label in the requested sequence.
Reply | b, c, a

P = Cc1ccc2c(N3C[C@H]4C[C@@H]3CN4CCc3ccc4c(c3)NC(=O)CO4)cccc2n1
Q = CC1(C)Cc2cccc(N3CCN(CCc4ccc5c(c4)NC(=O)CO5)CC3)c2O1
Ask | // which entry reports the smaller Intrinsic activity, P or Q ? Returns: label corresponding to the selected item.
Reply | P
(P: 0.8, Q: 1.2)
